The measurements presented in this section are drawn from PubChem BioAssay.

experiment: small-molecule microarray binders of probe aShh, primary screen, biochemical, biotinylated probe, 635/667 nm fluorescence (AID 1114); conditions: higher = more signal;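 further: probe is biotin-labelled aShh protein from a stem cell growth factor screen; measures binding of labelled protein to compounds printed on the slide; score merges feature fluorescence at 667 nm with signal-to-noise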
MEASURE: composite z-score
Reply with just the number.

Bench note: what composite z-score did COc1ccc(C(O)C2C=CC3C(=O)N(c4ccccc4)C(=O)C3N2Nc2ccc([N+](=O)[O-])cc2)cc1 (centres undefined) show?
0.109

Bench note: what composite z-score did COc1ccc([Si](C)(C)[C@@H]2[C@@H](CC(=O)N(CCO)Cc3ccccc3)O[C@]3(C(=O)N(Cc4cccc(N5C(=O)c6cccc7cccc5c67)c4)c4ccccc43)[C@H]2C)cc1 show?
-0.209

Bench note: what composite z-score did COCCOC(=O)N1C(=O)[C@@]2(c3cc(C#Cc4ccc(OC)cc4)ccc31)[C@H](c1ccc(O)cc1)N1[C@H](c3ccccc3)[C@H](c3ccccc3)OC(=O)[C@H]1[C@@H]2C(=O)N1CCCCCCC1 show?
0.199

Bench note: what composite z-score did COc1ccc(CN(C2=CC[C@@]3(C(N)=O)C(=O)C(Cl)=C(Cl)C(=O)[C@@]3(C#N)C2)S(=O)(=O)c2ccc(Br)cc2)cc1 show?
-0.0769

Bench note: what composite z-score did O=C1O[C@H](c2ccccc2)[C@H](c2ccccc2)N2[C@H]1[C@@H](C(=O)N1CCN(c3ncccn3)CC1)[C@]1(C(=O)Nc3ccc(C#CC4(O)CCCCCC4)cc31)[C@H]2c1ccc(OCCO)cc1 show?
0.543

Bench note: what composite z-score did CC(C)(C)N1CC=CC23O[C@@H]4C=CCOC(=O)[C@@H]4[C@H]2C(=O)N(CCCCCCO)[C@@H]3C1=O (some centres undefined) show?
-0.291

Bench note: what composite z-score did CN1C(=O)C2C=CC(C(O)c3cccc(O)c3)N(Nc3ccccc3)C2C1=O (centres undefined) show?
1.72

Bench note: what composite z-score did Cc1ccc(S[C@]2(C(=O)NCCCN(C)C)CC(=O)N(C3CCCCC3)[C@@H]2c2ccc(CO)cc2)cc1 show?
-0.0035

Bench note: what composite z-score did COc1ccc(NC(=O)O[C@H]2[C@H](OC(=O)Nc3ccccc3)[C@@H](OC(=O)Nc3ccccc3)[C@@H](OC)O[C@@H]2CO)cc1 show?
-0.0813

* * *

tested on: Fibrinogen (Alexa647-labelled); experiment: fibrinogen binders on compound microarrays, profiling panel, artefact control for SMM control-protein annotation, biochemical, small-molecule microarray, 635/667 nm fluorescence (AID 1131); details: fibrinogen-A647 binding fluorescence, higher = more signal;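 further: z-score merges 667 nm fluorescence with per-spot signal-to-noise over triplicate slides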
MEASURE: composite z-score
Reply with just the number.

Return composite z-score measured with Fibrinogen (Alexa647-labelled) given this compound: O=C(NCC(F)(F)F)[C@@H]1c2ccccc2C(=O)N(Cc2ccccc2C(F)(F)F)[C@H]1c1ccc(CO)cc1
-1.14

Return composite z-score measured with Fibrinogen (Alexa647-labelled) given this compound: C=CCC(OC(C)=O)[C@@H]1[C@@H](N(Cc2cc3ccccc3o2)C(=O)Cc2ccc(F)cc2)c2cc(OCCCO)ccc2N1C(=O)c1ccc2ccccc2c1 (some centres undefined)
-1.03

Return composite z-score measured with Fibrinogen (Alexa647-labelled) given this compound: CCOC(=O)[C@H]1[C@@H]2C(=O)N3CCC[C@H]3[C@H](O[Si](C(C)C)(C(C)C)C(C)C)[C@H]2C=C2CCN(S(=O)(=O)c3ccc(C)cc3)C[C@H]21
0.938

Return composite z-score measured with Fibrinogen (Alexa647-labelled) given this compound: CCCCCCc1nc(C2CC2)cc2c1[Si](C(C)C)(C(C)C)O[C@H]2c1ccccc1
-0.675

* * *

experiment: E. coli growth modulation, two-sided OD650, primary screen, E. coli filamentation project, strain DRC41, 24 h (AID 1093); conditions: OD650, 24 h, called active from +8 up or from −8 down;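 further: MC1000 strain lacking acrAB efflux and sulA so SOS filamentation is blocked; test concentration not given here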
Active and inactive are the calls of the source.
The reply should be one of these categories: active, inactive

Status in this test for C=CCOC(=O)[C@H]1[C@@H]2C(=O)O[C@@H](c3ccccc3)[C@@H](c3ccccc3)N2[C@@H](c2ccc(OCCOC(=O)[C@@H]3C[C@@H]4C(=O)N5CCC[C@H]5C(=O)N4[C@@H]3c3ccc(O)cc3)cc2)[C@]12C(=O)Nc1ccc(I)cc12 ?
inactive

Status in this test for C=CCOC(=O)[C@H]1[C@@H]2C(=O)O[C@@H](c3ccccc3)[C@@H](c3ccccc3)N2[C@@H](c2ccc(OCCOC(=O)[C@@H]3C[C@@H]4C(=O)N[C@@H](CCCCN(C)C)C(=O)N4[C@@H]3c3ccc(O)cc3)cc2)[C@]12C(=O)Nc1ccccc12 ?
inactive

Status in this test for Cn1cccc1C(O)C1C=CC2C(=O)NC(=O)C2N1Nc1ccc(Cl)cc1Cl (stereo unspecified) ?
inactive

Status in this test for C=CCC(OC(C)=O)[C@@H]1[C@@H](N(Cc2cc3ccccc3o2)C(=O)Cc2ccc(F)cc2)c2cc(OCCCO)ccc2N1C(=O)c1ccc2ccccc2c1 (stereo partly specified) ?
inactive

Status in this test for CCCC[C@@H]1C[C@H]1[C@@H](NC(=O)c1ccccc1)c1ccc(C(F)(F)F)cc1 ?
inactive

Status in this test for COC(=O)CCCCCCC(=O)Nc1ccc(NC(=O)CCCC[P+](c2ccccc2)(c2ccccc2)c2ccccc2)cc1 ?
active

* * *

assay: E. coli acrAB mutant growth effects, primary screen, E. coli filamentation inducers, strain DRC39, OD650, 24 h (AID 1178); conditions: higher = more signal, called active from +8 up or from −8 down;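 further: growth measured as culture turbidity by optical density at 650 nm; test concentration not given here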
Rule: z-score of -0.09 or more gives yes; anything lower gives no.

Please check the record CCOC(=O)C1CCCCN1 (stereo not given) and state if its z-score is at or above -0.09.
no

Please check the record COC(=O)[C@@]1(Cc2ccc(OC)cc2)[C@H]2c3cc(C(=O)N(C)C)n(CCO)c3C[C@H]2CN1C(=O)c1ccccc1 and state if its z-score is at or above -0.09.
no

Please check the record C=C[C@@H](COC(C)=O)N(C(=O)OC(C)(C)C)S(=O)(=O)c1ccc(Br)cc1 and state if its z-score is at or above -0.09.
yes

Please check the record [N-]=[N+]=Nc1ccccc1[C@H]1OC(c2ccc(OCCCO)cc2)=N[C@@]1(CCS(=O)(=O)c1ccccc1)C(=O)NCCN1CCOCC1 and state if its z-score is at or above -0.09.
no

Please check the record COCCCNC(=O)[C@@]1(Cc2ccccc2CN=[N+]=[N-])N=C(c2ccc(OCCCO)cc2)O[C@H]1c1ccccc1 and state if its z-score is at or above -0.09.
yes

Please check the record COc1ccc([Si](C)(C)[C@@H]2[C@@H](CC(=O)N(CCO)Cc3ccccc3)O[C@]3(C(=O)N(c4ccccc4)c4ccccc43)[C@H]2C)cc1 and state if its z-score is at or above -0.09.
yes

Please check the record CCOC(=O)C[C@H]1[C@H](OC(=O)c2cc3ccccc3oc2=O)[C@@H](NC(=O)c2ccc(-c3ccccc3)cc2)c2cc(OCCCO)ccc2N1C(=O)c1ccccc1 and state if its z-score is at or above -0.09.
no

Please check the record CCCCC(=C=CC[C@@H](O)c1ccccc1OCCO)C[C@@H](O)COCc1ccccc1 and state if its z-score is at or above -0.09.
yes

Please check the record CC(C)[Si](C#CCCCC#N)(O[C@H](c1ccccc1)c1cn([C@H](CO)Cc2ccccc2)nn1)C(C)C and state if its z-score is at or above -0.09.
yes

Please check the record COc1ccc([Si](C)(C)[C@@H]2[C@@H](CC(=O)N3Cc4ccccc4C[C@H]3CO)O[C@]3(C(=O)N(Cc4cccc(N5C(=O)c6cccc7cccc5c67)c4)c4ccccc43)[C@H]2C)cc1 and state if its z-score is at or above -0.09.
yes

Please check the record Cc1ccc(S[C@]2(C(=O)O)CC(=O)N(Cc3cc(C(F)(F)F)cc(C(F)(F)F)c3)[C@@H]2c2ccc(CO)cc2)cc1 and state if its z-score is at or above -0.09.
no

Please check the record CC(C)C(CO)N1C(=O)[C@@H]2C3C(=O)OCCC/C=C\[C@H]3OC23C=CCN(C(C)(C)C)C(=O)[C@@H]13 (stereo not given in full) and state if its z-score is at or above -0.09.
yes

Please check the record CCOC(=O)C1=CC[C@@H](c2ccc(OCc3ccccc3)c(OC)c2)N(S(=O)(=O)c2ccc(C)cc2)[C@H]1c1ccc(SC)cc1 and state if its z-score is at or above -0.09.
no

Please check the record Cc1ccc(S[C@]2(C(=O)O)CC(=O)N(C3Cc4ccccc4C3)[C@@H]2c2ccc(CO)cc2)cc1 and state if its z-score is at or above -0.09.
no

Please check the record O=C1C[C@@](C(=O)NCCN2CCOCC2)(c2ccc([N+](=O)[O-])cc2)[C@@H](c2ccc(CO)cc2I)N1C1CCCCC1 and state if its z-score is at or above -0.09.
yes

* * *

So I've got a bunch of molecules here, and I need their z-score values.
assay: HepG2 liver cancer cell viability effects, profiling panel, resazurin fluorescence, 24 h, PK04 Diversity Set (AID 1172); conditions: higher = more signal; further: test concentration not given here
Reply with just the number.

Bench note: what z-score did O=C1OCC=C[C@H]2OC34C=CCN(Cn5nnc6ccccc65)C(=O)[C@H]3N(CCCO)C(=O)[C@@H]4[C@@H]12 (some centres not stated) show?
-0.281

Bench note: what z-score did C[C@]1(C(=O)NC2CC2)c2ccccc2C(=O)N(Cc2ccccc2)[C@H]1c1ccc(CO)cc1 show?
-0.0738

Bench note: what z-score did C=C(C)[C@@H]1CC=C(C(O)C2C=CC3C(=O)N(c4ccccc4)C(=O)C3N2Nc2ccccc2F)CC1 (some centres not stated) show?
-0.91

Bench note: what z-score did CCC[C@@H]1C[C@@]1(CCC)[C@@H](NC(=O)OCc1ccccc1)c1ccc(-c2ccccc2)cc1 show?
2.43

Bench note: what z-score did CN1C(=O)C2C=CC(C(O)COCc3ccccc3)N(N(c3ccccc3)c3ccccc3)C2C1=O (configuration not stated) show?
0.669

Bench note: what z-score did C[N+](C)(C)CCCCCCNC(=O)[C@H]1C[C@H]2C(=O)NCC(=O)N2[C@H]1c1ccc(O)cc1 show?
0.767

Bench note: what z-score did COC(=O)[C@@]1(Cc2ccc(F)cc2)[C@H]2c3cc(C(=O)N4CCCC4)n(CCN4CNCC4=O)c3C[C@H]2CN1C(=O)c1ccccc1 show?
0.424

Bench note: what z-score did [N-]=[N+]=NCc1ccccc1[C@H]1OC(c2ccc(OCCCO)cc2)=N[C@@]1(CCS(=O)(=O)c1ccccc1)C(=O)N1CCCCC1 show?
-0.0145

Bench note: what z-score did CN1C(=O)C2C=CC(C(O)c3cccc4ccccc34)N(N3CCCCC3)C2C1=O (configuration not stated) show?
-0.908

Bench note: what z-score did CN1C(=O)C2C=CC(C(O)c3ccccn3)N(N(c3ccccc3)c3ccccc3)C2C1=O (configuration not stated) show?
-1.15

Bench note: what z-score did O=C(CS)NCCCCCCNC(=O)[C@H]1C[C@H]2C(=O)N[C@@H](Cc3ccccc3)C(=O)N2[C@H]1c1ccc(O)cc1 show?
0.504

Bench note: what z-score did CC(c1ccccc1)C(O)C1C=CC2C(=O)N(c3ccccc3)C(=O)C2N1Nc1ccc([N+](=O)[O-])cc1 (configuration not stated) show?
0.796

Bench note: what z-score did CC=CC(O)C1C=CC2C(=O)N(c3ccccc3)C(=O)C2N1Nc1ccccc1F (configuration not stated) show?
-0.471

Bench note: what z-score did CCCCC(=C=CC[C@@H](O)c1ccccc1OCCO)C[C@@H](O)COCc1ccccc1 show?
-0.202

Bench note: what z-score did CC1CC/C=C\[C@H]2OC34C=CCN(C(C)C)C(=O)[C@H]3N(CCCCCCO)C(=O)[C@@H]4C2C(=O)O1 (some centres not stated) show?
0.609

Bench note: what z-score did O=C(NCCCCCNC(=O)/C(Cc1ccccc1)=N/O)OCc1ccccc1 show?
0.619

Bench note: what z-score did O=C(NCC(F)(F)F)[C@@H]1c2ccccc2C(=O)N(Cc2ccc(OC(F)(F)F)cc2)[C@H]1c1ccc(CO)cc1 show?
1.09
